ASSAY_PROTOCOL: Aqueous solubility of the compound in water by HPLC based shake flask method
Assay type: physicochemical
I'd appreciate it if you could supply solubility thermodynamic values for the items below.
Supply the numeric figure in µM, leaving out any unit text.

q: I have this compound here, `Cc1ccc(-c2ccc(CSc3nnc(-c4ccc5c(c4)OCCO5)o3)cc2)nc1` , and I need its recorded solubility thermodynamic.
a: 1

q: Also need `N#Cc1ccc(-c2ccc(CSc3nnc(-c4ccc5c(c4)OCCO5)o3)cc2)cn1` , thanks.
a: 50

q: How about this compound: `Fc1ccc(-c2ccc(CSc3nnc(-c4ccc5c(c4)OCCO5)o3)cc2)cn1`
a: 17

q: // repeat for `N#Cc1ccc(-c2ccc(CSc3nnc(-c4ccc5c(c4)OCCO5)o3)cc2)nc1` and report
a: 181

q: Another: `N#Cc1cc(F)ccc1-c1ccc(CSc2nnc(-c3ccc4c(c3)OCCO4)o2)cc1`
a: 1

q: Repeat for the following compound: `Fc1ccc(-c2ccc(CSc3nnc(-c4ccc5c(c4)OCCO5)o3)cn2)cn1`
a: 1

q: Would you mind doing `NC(=O)c1cc(F)ccc1-c1ccc(CSc2nnc(-c3ccc4c(c3)OCCO4)o2)cc1` as well?
a: 73
